assay: Permeability test in the optimized annular shaking dish (AS) BBB model; conditions: human
Where a name gives a salt, the structure may show the parent alone.
Lab note: compare Papp at 90 min, 20 μM against 20 ×10⁻⁶ cm/s. Equal or greater, write 1 (yes). Smaller, write 0 (no).

**Query** Item COC(=O)c1ccccc1-c1c2ccc(=N)cc-2oc2cc(N)ccc12 with Papp at 90 min, 20 μM of 20 ×10⁻⁶ cm/s or above?
**Result** 0 (no)

Next:
**Query** Item CC(C)NCC(O)COc1cccc2ccccc12 (centres unmarked) [Propranolol, propranolol HCl] with Papp at 90 min, 20 μM of 20 ×10⁻⁶ cm/s or above?
**Result** 1 (yes)

**Query** Item CCN1CCCC1CNC(=O)c1cc(S(N)(=O)=O)ccc1OC (centres unmarked) [Sulpiride, sulpiride] with Papp at 90 min, 20 μM of 20 ×10⁻⁶ cm/s or above?
**Result** 0 (no)

**Query** Item NC(=O)N1c2ccccc2C=Cc2ccccc21 [Carbamazepine, carbamazepine] with Papp at 90 min, 20 μM of 20 ×10⁻⁶ cm/s or above?
**Result** 1 (yes)

**Query** Item O=C1NC(=O)C(c2ccccc2)(c2ccccc2)N1 [Phenytoin, phenytoin sodium] with Papp at 90 min, 20 μM of 20 ×10⁻⁶ cm/s or above?
**Result** 1 (yes)

###

system: P-gp; test: Efflux transporter inhibition assay, P-gp, AS BBB model; type: in vitro ADME; conditions: human, with cyclosporin A 10 μM; optimized AS BBB model, with P-gp inhibitor cyclosporin A 10 μM
Assay Readout: efflux ratio at 10 μM
Lab note: write the figure by itself, no unit.

**Query** Form field: reported efflux ratio at 10 μM of COC(=O)c1ccccc1-c1c2ccc(=N)cc-2oc2cc(N)ccc12
**Result** 1.6
